- systemUnderTest: UniProtKB P43115
- assayProcedure: Cellular in vitro assay for determining EP3 receptor activity (human EP3 cell line, sulprostone-stimulated calcium luminescence)
- conditionInfo: CHO cells expressing human EP3 and mitochondrial Clytin; antagonist mode, sulprostone at EC50; read-out: EP3 CHO mtCLY ANTAG IC50
Below is a list of entries, each paired with its recorded pIC50 value.
Keep it numeric: pIC50 is minus log10 of the concentration in mol/L.

Previously resolved entries follow.
| molecule | systemUnderTest | pIC50 |
| --- | --- | --- |
| Cc1c(C(=O)N[C@H](C)c2ccc(F)cc2)nn2cc(-c3ccc4ccccc4c3)[nH]c(=O)c12 [Example 1-45] | UniProtKB P43115 | 8.55 |
| Cc1ccc(-c2cn3nc(C(=O)N[C@@H](CCO)c4ccc(F)cc4)cc3c(=O)[nH]2)cc1C [Example 1-70] | UniProtKB P43115 | 8.50 |
| Cc1c(C(=O)NC2Cc3ccccc3C2)nn2c(C)c(-c3ccc4ccccc4c3)[nH]c(=O)c12 [Example 3-13] | UniProtKB P43115 | 8.15 |
| Cc1ccc(C(C)NC(=O)c2cc3c(=O)[nH]c(-c4ccc5ccccc5c4)cn3n2)cc1 (stereo not shown) [Example 2-44] | UniProtKB P43115 | 8.89 |
| CC[C@@H](C)NC(=O)c1nn2cc(-c3ccc(Cl)c(C)c3)[nH]c(=O)c2c1C(F)(F)C(F)(F)F [6-479] | UniProtKB P43115 | 8.64 |
| Cc1ccc(-c2cn3nc(C(=O)N[C@@H](c4ccc(F)cc4)C(C)(C)O)c(C(F)(F)C(F)(F)F)c3c(=O)[nH]2)cc1Cl [6-488] | UniProtKB P43115 | 9.24 |

Now, please, on to the next molecule.
Supply reported pIC50 belonging to this molecule: Cc1cc(-c2cn3nc(C(=O)N[C@@H](c4ccc(F)cc4)[C@@H](O)C(F)(F)F)c(C4CC4)c3c(=O)[nH]2)ccc1Cl [6-316] 9.13

----------
- systemUnderTest: human EP3 receptor (Homo sapiens)
- assayProcedure: Cellular in vitro assay for determining EP3 receptor activity (human EP3 cell line, sulprostone-stimulated calcium luminescence)
- conditionInfo: CHO cells expressing human EP3 and mitochondrial Clytin; antagonist mode, sulprostone at EC50; read-out: EP3 CHO mtCLY ANTAG IC50
quantityName: pIC50
Keep it numeric: pIC50 is minus log10 of the concentration in mol/L.

| compound | quantityName | measuredValue |
| --- | --- | --- |
| Cc1ccc(-c2cn3nc(C(=O)N[C@@H](c4ccc(F)cc4)C(F)(F)CO)c(C(F)(F)C(F)(F)F)c3c(=O)[nH]2)cc1C | pIC50 | 9.39 |

Supply reported pIC50 belonging to this compound: Cc1cc(-c2cn3nc(C(=O)N[C@@H](C)C4CC4)c(C4CC4)c3c(=O)[nH]2)ccc1Cl 8.80

Supply reported pIC50 belonging to this compound: Cc1cc(-c2cn3nc(C(=O)N[C@@H](c4ccc(F)cc4)C(C)(C)O)c(C(F)(F)F)c3c(=O)[nH]2)ccc1Cl 8.50

Supply reported pIC50 belonging to this compound: N#Cc1c(C(=O)N[C@@H](CCO)c2ccc(F)cc2)nn2cc(-c3ccc4ccccc4c3)[nH]c(=O)c12 8.18

Supply reported pIC50 belonging to this compound: O=C(N[C@H](CCO)c1ccc(F)cc1)c1nn2cc(-c3ccc(Cl)cc3)[nH]c(=O)c2c1C1CC1 9.10

Supply reported pIC50 belonging to this compound: Cc1ccc(-c2cn3nc(C(=O)NCC(O)C(F)(F)F)c(C4CC4)c3c(=O)[nH]2)cc1C(F)(F)F (single isomer, unassigned) [6-245] 8.87

Supply reported pIC50 belonging to this compound: Cc1ccc(-c2cn3nc(C(=O)NC(CO)C(F)(F)F)c(C(F)(F)F)c3c(=O)[nH]2)cc1Cl (racemic) [6-161] 8.64

----------
- systemUnderTest: human EP3 receptor (Homo sapiens)
- assayProcedure: Cellular in vitro assay for determining EP3 receptor activity (human EP3 cell line, sulprostone-stimulated calcium luminescence)
- conditionInfo: CHO cells expressing human EP3 and mitochondrial Clytin; antagonist mode, sulprostone at EC50; read-out: EP3 CHO mtCLY ANTAG IC50
Below is a list of entries, each paired with its recorded pIC50 value.
Keep it numeric: pIC50 is minus log10 of the concentration in mol/L.

Previously resolved entries follow.
| compound | systemUnderTest | pIC50 |
| --- | --- | --- |
| Cc1ccc(-c2cn3nc(C(=O)NCC(O)C(F)(F)F)c(C4CC4)c3c(=O)[nH]2)cc1F (single isomer, unassigned; enantiomer2) [Example 1-161] | human EP3 receptor (Homo sapiens) | 8.24 |
| CCN1CCC(NC(=O)c2nn3cc(-c4ccc(Cl)c(C)c4)[nH]c(=O)c3c2C2CC2)(C(F)(F)F)C1 (racemic) [6-292] | human EP3 receptor (Homo sapiens) | 8.69 |

Supply reported pIC50 belonging to this compound: Cc1ccc(-c2cn3nc(C(=O)NC(CN(C)C)c4ccc(F)cc4)c(C4CC4)c3c(=O)[nH]2)cc1C (racemic) [6-444] 8.49

Supply reported pIC50 belonging to this compound: Cc1ccc(-c2cn3nc(C(=O)N[C@@H](c4ccc(F)cc4)C(C)(C)O)c(C4CCC4)c3c(=O)[nH]2)cc1C 8.57

Supply reported pIC50 belonging to this compound: Cc1ccc(-c2cn3nc(C(=O)N[C@H](C)C(C)C)c(C(F)(F)F)c3c(=O)[nH]2)cc1Cl 8.87

Supply reported pIC50 belonging to this compound: Cc1c(C(=O)NC(C)(C)c2cc(Cl)cc(Cl)c2)nn2c(C)c(-c3ccc4ccccc4c3)[nH]c(=O)c12 8.03

Supply reported pIC50 belonging to this compound: Cc1c(C(=O)NC(CO)c2ccc(Br)cc2)nn2c(C)c(-c3ccc4ccccc4c3)[nH]c(=O)c12 (stereo not drawn) 8.60

Supply reported pIC50 belonging to this compound: Cc1ccc(-c2cn3nc(C(=O)N[C@@H](c4ccc(F)cc4)C(C)(C)O)c(C4CC4)c3c(=O)[nH]2)cc1C(F)(F)F 8.24

Supply reported pIC50 belonging to this compound: Cc1cccc2ncc(-c3cn4nc(C(=O)NC(C)CC5CC5)c(C(C)C)c4c(=O)[nH]3)cc12 (stereo not drawn) 8.98

----------
- systemUnderTest: human EP3 receptor (Homo sapiens, UniProt P43115)
- assayProcedure: Cellular in vitro assay for determining EP3 receptor activity (human EP3 cell line, sulprostone-stimulated calcium luminescence)
- conditionInfo: CHO cells expressing human EP3 and mitochondrial Clytin; antagonist mode, sulprostone at EC50; read-out: EP3 CHO mtCLY ANTAG IC50
- Method: B-1. Cellular In Vitro Assay for Determining EP3 Receptor Activity The identification of antagonists of the EP3 receptor from humans and rats as well as the quantification of the activity of the compounds of the invention was carried out using recombinant cell lines. […] Antagonists inhibit the receptor signaling, leading to reduced calcium release and luminescence. The bioluminescence of the cell lines is detected using a suitable luminometer (Trends Pharmacol. Sci. 1996, 17, 235-237). […]
Below is a list of entries, each paired with its recorded pIC50 value.
Keep it numeric: pIC50 is minus log10 of the concentration in mol/L.

Previously resolved entries follow.
| compound | systemUnderTest | measuredValue |
| --- | --- | --- |
| Cc1ccc(-c2cn3nc(C(=O)N[C@@H](C)C(C)C)c(C(F)(F)F)c3c(=O)[nH]2)cc1Cl | human EP3 receptor (Homo sapiens, UniProt P43115) | 8.84 |
| Cc1ccc(-c2cn3nc(C(=O)N[C@H](CCO)c4ccc(F)cc4)c(C(C)C)c3c(=O)[nH]2)cc1C | human EP3 receptor (Homo sapiens, UniProt P43115) | 9.20 |
| Cc1ccc(-c2cn3nc(C(=O)NCC(O)C(F)F)c(C4CC4)c3c(=O)[nH]2)cc1F (racemic) [6-369] | human EP3 receptor (Homo sapiens, UniProt P43115) | 8.52 |

Now, please, on to the next compound.
Supply reported pIC50 belonging to this compound: C[C@@H](NC(=O)c1nn2cc(-c3ccc4ccccc4c3)[nH]c(=O)c2c1C(F)(F)F)c1ccc(F)cc1 9.09

----------
- systemUnderTest: human EP3 receptor (Homo sapiens, UniProt P43115)
- Sequence (P43115 1-390): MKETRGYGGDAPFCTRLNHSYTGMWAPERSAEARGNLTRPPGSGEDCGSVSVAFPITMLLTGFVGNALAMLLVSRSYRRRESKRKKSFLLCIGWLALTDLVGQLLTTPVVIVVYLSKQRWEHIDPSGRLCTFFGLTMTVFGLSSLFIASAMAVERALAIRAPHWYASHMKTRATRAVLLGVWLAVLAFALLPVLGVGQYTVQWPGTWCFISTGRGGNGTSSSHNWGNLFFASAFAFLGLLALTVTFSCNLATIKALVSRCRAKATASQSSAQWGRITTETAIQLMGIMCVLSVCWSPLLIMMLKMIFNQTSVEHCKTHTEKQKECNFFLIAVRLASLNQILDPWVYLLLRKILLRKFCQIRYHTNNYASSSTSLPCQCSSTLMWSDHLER
- assayProcedure: Cellular in vitro assay for determining EP3 receptor activity (human EP3 cell line, sulprostone-stimulated calcium luminescence)
- conditionInfo: CHO cells expressing human EP3 and mitochondrial Clytin; antagonist mode, sulprostone at EC50; read-out: EP3 CHO mtCLY ANTAG IC50
Below is a list of entries, each paired with its recorded pIC50 value.
Keep it numeric: pIC50 is minus log10 of the concentration in mol/L.

Previously resolved entries follow.
| compound | systemUnderTest | pIC50 |
| --- | --- | --- |
| CC(C)(O)[C@@H](NC(=O)c1cc2c(=O)[nH]c(-c3ccc(Cl)c(Cl)c3)cn2n1)c1ccc(F)cc1 | human EP3 receptor (Homo sapiens, UniProt P43115) | 8.12 |
| O=C(NC1CCCc2ccccc21)c1cc2c(=O)[nH]c(-c3ccc4ccccc4c3)cn2n1 (stereo not drawn) | human EP3 receptor (Homo sapiens, UniProt P43115) | 8.55 |
| Cc1cccc2ncc(-c3cn4nc(C(=O)N[C@@H](c5ccc(F)cc5)C(C)(C)O)c(C(C)C)c4c(=O)[nH]3)cc12 | human EP3 receptor (Homo sapiens, UniProt P43115) | 8.99 |
| CC(NC(=O)c1nn2cc(-c3ccc4ccccc4c3)[nH]c(=O)c2c1C#N)c1ccc(Cl)c(Cl)c1 (stereo not drawn) | human EP3 receptor (Homo sapiens, UniProt P43115) | 8.16 |
| COCc1c(C(=O)NC2(c3ccc(F)cc3)CN(C)C2)nn2cc(-c3ccc4ccccc4c3)[nH]c(=O)c12 | human EP3 receptor (Homo sapiens, UniProt P43115) | 8.90 |
| CN(C)CC(NC(=O)c1cc2c(=O)[nH]c(-c3ccc4ccccc4c3)cn2n1)c1ccccc1 (racemic) | human EP3 receptor (Homo sapiens, UniProt P43115) | 8.36 |
| O=C(N[C@H]1c2ccccc2C[C@@H]1O)c1cc2c(=O)[nH]c(-c3ccc4ccccc4c3)cn2n1 | human EP3 receptor (Homo sapiens, UniProt P43115) | 8.08 |
| CC(NC(=O)c1nn2cc(-c3ccc4ccccc4c3)[nH]c(=O)c2c1C#N)c1ccc(Cl)cc1Cl (stereo not drawn) | human EP3 receptor (Homo sapiens, UniProt P43115) | 8.63 |
| Cc1c(C(=O)NC2CCc3ccccc32)nn2c(C)c(-c3ccc4ccccc4c3)[nH]c(=O)c12 (stereo not drawn) | human EP3 receptor (Homo sapiens, UniProt P43115) | 8.19 |
| Cc1cccc2ncc(-c3cn4nc(C(=O)NC(c5ccc(F)cc5)C(C)C)c(C(C)C)c4c(=O)[nH]3)cc12 (stereo not drawn) | human EP3 receptor (Homo sapiens, UniProt P43115) | 8.39 |

Supply reported pIC50 belonging to this compound: COc1ccc(C2(NC(=O)c3nn4cc(-c5ccc6c(c5)OCCO6)[nH]c(=O)c4c3C3CC3)CN(C)C2)cc1 8.44

Supply reported pIC50 belonging to this compound: CC(C)(O)[C@@H](NC(=O)c1nn2cc(-c3ccc(Cl)c(F)c3)[nH]c(=O)c2c1C1CC(F)(F)C1)c1ccc(F)cc1 8.47

Supply reported pIC50 belonging to this compound: Cc1c(C(=O)NC2(c3ccc(F)cc3)CC2)nn2cc(-c3ccc4ccccc4c3)[nH]c(=O)c12 8.55

Supply reported pIC50 belonging to this compound: O=C(N[C@@H](CCO)c1ccc(F)cc1)c1cc2c(=O)[nH]c(-c3ccc4ccccc4c3)cn2n1 8.65

Supply reported pIC50 belonging to this compound: CC[C@@H](C)NC(=O)c1nn2cc(-c3ccc(C)c(Cl)c3)[nH]c(=O)c2c1C1CC1 9.06
